molecular target: BCAT2 (Homo sapiens, UniProt O15382); assay: BCAT2 in vitro enzyme inhibition assay (resazurin/diaphorase-coupled fluorescence); format: biochemical; details: average where tested multiple times
Sequence (O15382 28-392): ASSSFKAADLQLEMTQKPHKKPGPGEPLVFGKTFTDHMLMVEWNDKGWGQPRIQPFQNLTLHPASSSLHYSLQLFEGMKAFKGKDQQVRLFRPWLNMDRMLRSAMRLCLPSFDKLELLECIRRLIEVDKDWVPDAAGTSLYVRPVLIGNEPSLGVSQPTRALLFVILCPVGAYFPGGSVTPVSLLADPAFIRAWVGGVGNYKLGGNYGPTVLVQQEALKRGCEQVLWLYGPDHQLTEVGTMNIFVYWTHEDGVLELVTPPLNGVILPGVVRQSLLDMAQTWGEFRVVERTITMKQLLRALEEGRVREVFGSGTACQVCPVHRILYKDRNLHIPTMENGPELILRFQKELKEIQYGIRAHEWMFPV
Readout type: IC50

Examples with their reported IC50 follow.
>>> experimental_result("CS(=O)(=O)N1C[C@@H](NC(=O)c2ncc(Cl)s2)C[C@@H](n2c(-c3ccccc3F)nc3cnc(-c4nc[nH]n4)cc32)C1 [Example 461]")
"≤ 0.1 µM"
>>> experimental_result("COC(=O)N1C[C@H](NC(=O)c2ccc(Cl)s2)C[C@H](n2c(-c3ccccc3F)nc3cnc(-c4nc[nH]n4)cc32)C1 [Example 462]")
"≤ 0.1 µM"
>>> experimental_result("CO[C@@H]1C[C@@H](NC(=O)c2ncc(Cl)s2)C[C@@H](n2c(-c3ccccc3C#N)nc3cnc(-c4nc[nH]n4)cc32)C1 (stereo in doubt) [Example 446]")
"≤ 0.1 µM"
>>> experimental_result("CC(C)Cc1nc2cnc(-c3ccn[nH]3)cc2n1[C@H]1CCC[C@@H](NC(=O)c2ncc(Cl)s2)[C@@H]1O [Example 226]")
"> 1 µM"
>>> experimental_result("Cn1nccc1-c1nc2cnc(-n3ccnn3)cc2n1[C@@H]1CCC[C@H](NC(=O)c2ncc(C(F)F)s2)C1 [Example 44]")
"> 1 µM"

input: Look up IC50: CC(C)Cc1nc2cnc(-c3cc(C(F)(F)F)n[nH]3)cc2n1[C@H]1CCC[C@@H](NC(=O)c2ncc(Cl)s2)[C@@H]1O [Example 217]
output: > 1 µM

input: And what about the molecule CC(C)(C)Cc1nc2cnc(-n3nccn3)cc2n1[C@H]1CCC[C@@H](NC(=O)c2ccc(Cl)s2)[C@@H]1O [Example 388] ?
output: > 1 µM

input: And what about the molecule C#Cc1cnc(C(=O)N[C@H]2CCC[C@@H](n3c(-c4ccccn4)nc4cnc(-n5ccnn5)cc43)C2)s1 [Example 33] ?
output: ≤ 0.1 µM

input: And what about the molecule CCn1c(CO)nn(-c2cc3c(cn2)nc(CC(C)C)n3[C@@H]2CCC[C@H](NC(=O)c3ccc(Cl)s3)C2)c1=O [Example 373] ?
output: ≤ 0.1 µM

input: And what about the molecule O=C(N[C@H]1CCC[C@@H](n2c(-c3ncccc3F)nc3cnc(-n4ccnn4)nc32)C1)c1ncc(C(F)F)s1 [Example 59] ?
output: 0.1 to 0.5 µM

input: And what about the molecule CO[C@@H]1C[C@@H](NC(=O)c2ncc(Cl)s2)C[C@@H](n2c(-c3ccccc3F)nc3cnc(N4CCC[C@H]4CO)cc32)C1 [Example 430] ?
output: > 1 µM

input: And what about the molecule CC(C)Cc1nc2cnc(N3CCC[C@H]3C(C)(C)O)cc2n1[C@@H]1CCC[C@H](NC(=O)c2ncc(Cl)s2)C1 [Example 193] ?
output: > 1 µM

input: And what about the molecule NCc1ccccc1-c1nc2cnc(-c3nc[nH]n3)cc2n1[C@@H]1CCC[C@H](NC(=O)c2ncc(Cl)s2)C1 [Example 366] ?
output: ≤ 0.1 µM

input: And what about the molecule CS(=O)(=O)O[C@@H]1[C@@H](NC(=O)c2ncc(Cl)s2)CCC[C@H]1n1c(-c2ccccc2F)nc2cnc(-c3nc[nH]n3)cc21 [Example 448] ?
output: 0.5 to 1 µM

input: And what about the molecule CC(C)Cc1nc2cnc(-c3nc[nH]n3)cc2n1[C@H]1C[C@@H](NC(=O)c2ccc(Cl)s2)CC(F)(F)C1 (stereo in doubt) [Example 453] ?
output: 0.1 to 0.5 µM

input: And what about the molecule C#Cc1ccc(C(=O)N[C@H]2CCC[C@@H](n3c(CC(C)C)nc4cnc(-c5nc[nH]n5)cc43)C2)s1 [Example 341] ?
output: ≤ 0.1 µM
